All figures here come from patent US20160298129A1.

Biological target: UniProt P17597
Sequence (P17597 56-670 E575Q): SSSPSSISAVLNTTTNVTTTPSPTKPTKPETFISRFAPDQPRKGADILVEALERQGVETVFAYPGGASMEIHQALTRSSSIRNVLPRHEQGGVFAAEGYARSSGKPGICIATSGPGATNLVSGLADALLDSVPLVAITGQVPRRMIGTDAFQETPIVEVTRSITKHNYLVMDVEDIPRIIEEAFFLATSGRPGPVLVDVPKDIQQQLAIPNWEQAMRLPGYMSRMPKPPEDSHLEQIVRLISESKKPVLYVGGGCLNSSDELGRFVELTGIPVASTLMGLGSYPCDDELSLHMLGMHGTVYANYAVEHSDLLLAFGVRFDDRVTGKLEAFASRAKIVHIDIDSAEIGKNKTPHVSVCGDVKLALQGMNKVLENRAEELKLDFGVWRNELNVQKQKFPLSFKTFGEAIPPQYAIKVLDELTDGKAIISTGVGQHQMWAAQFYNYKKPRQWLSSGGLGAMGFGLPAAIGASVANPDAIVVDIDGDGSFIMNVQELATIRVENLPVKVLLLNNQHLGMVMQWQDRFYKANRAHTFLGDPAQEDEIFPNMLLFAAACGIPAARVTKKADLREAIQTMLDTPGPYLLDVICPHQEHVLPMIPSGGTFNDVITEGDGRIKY
Test: biochemical
Description: Bacteria are grown at 37° C. in LB-medium containing 100 mg/l carbenicillin and 25 mg/l canamycin, induced with 1 mM isopropyl-β-D-thiogalactopyranoside at an OD600 of 0.6, cultivated for 16 hours at 18° C. and harvested by, e.g., centrifugation. Bacterial pellets are resuspended in 100 mM sodium phosphate buffer pH 7.0 containing 0.1 mM thiamine-pyrophosphate, 1 mM MgCl2, and 1 μM FAD at a concentration of 1 gram wet weight per 25 ml of buffer and disrupted by, e.g., sonification. […]
Reported IC50 values follow for various compounds

smilesNotation | IC50
COc1cc(OC)nc(NC(=O)NS(=O)(=O)c2cc(NC=O)ccc2C(=O)N(C)C)n1 | 7.94 nM
COc1cc(OC)nc(NC(=O)NS(=O)(=O)c2ncccc2C(=O)N(C)C)n1 | 158 nM
CCS(=O)(=O)c1nc2ccccn2c1S(=O)(=O)NC(=O)Nc1nc(OC)cc(OC)n1 | 20 nM
CCS(=O)(=O)c1cccnc1S(=O)(=O)NC(=O)Nc1nc(OC)cc(OC)n1 | 20 nM
